# Target Under Test: T1, erythropoietin receptor, human recombinant (NSO cells) (human) (UniProt P19235)
# T1 sequence (looked up): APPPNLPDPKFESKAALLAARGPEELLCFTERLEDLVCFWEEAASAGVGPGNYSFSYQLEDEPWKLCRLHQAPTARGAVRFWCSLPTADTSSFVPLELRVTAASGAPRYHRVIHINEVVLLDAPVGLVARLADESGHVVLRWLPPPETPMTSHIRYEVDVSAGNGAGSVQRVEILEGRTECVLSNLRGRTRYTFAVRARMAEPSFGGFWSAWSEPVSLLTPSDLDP
# Experiment: radioligand binding, displacement of [125I]EPO
Where no end group is shown, it is not given here. [ ]: non-standard residue; d: D form. hLeu = CC(C)CC[C@H](N)C(=O)O; βAla = NCCC(=O)O
Consider the following binders and their measured Ki readings.
API: value field is a number in nM; no unit string.

# count of solved cases: 6
Ac-NYLRMGWVKP (peptide, part only; not given: Bridge, linker and tail moieties, not shown: small tags and cut ends, also: two linked chains, linker and second chain not given here) [EPO mimetic 2. (N-End AcNYL, Loop RMGWV, Mid KP)]: 22
Ac-NYLRM[βAla]WVKP (peptide, part only; not given: Bridge, linker and tail moieties, not shown: small tags and cut ends, also: two linked chains, linker and second chain not given here) [EPO mimetic 3. (N-End AcNYL, Loop RMβAWV, Mid KP)]: 27
[DesaminoY]LRMPWVKP (peptide, part only; not given: Bridge, linker and tail moieties, not shown: small tags and cut ends, also: two linked chains, linker and second chain not given here) [EPO mimetic 15. (N-End Desamino YL, Loop RMPWV, Mid KP)]: 9.6
Ac-NYLRM[hLeu]WVRP (peptide, part only; not given: Bridge, linker and tail moieties, not shown: small tags and cut ends, also: two linked chains, linker and second chain not given here) [EPO mimetic 9. (N-End AcNYL, Loop RMhomoLWV, Mid RP)]: 23
Ac-NYLRMFWVRP (peptide, part only; not given: Bridge, linker and tail moieties, not shown: small tags and cut ends, also: two linked chains, linker and second chain not given here) [EPO mimetic 6. (N-End AcNYL, Loop RMFWV, Mid RP)]: 17
Ac-NYLRMLWVRP (peptide, part only; not given: Bridge, linker and tail moieties, not shown: small tags and cut ends, also: two linked chains, linker and second chain not given here) [EPO mimetic 8. (N-End AcNYL, Loop RMLWV, Mid RP)]: 34

Consider the additional binder presented here.
*Q* Please look up its Ki: Ac-NYLRMGWVRP (peptide, part only; not given: Bridge, linker and tail moieties, not shown: small tags and cut ends, also: two linked chains, linker and second chain not given here) [EPO mimetic 4. (N-End AcNYL, Loop RMGWV, Mid RP)]
*A* 44
